Molecular target: HLA-B*48:01
Experiment: IEDB peptide-MHC binding, purified MHC/direct/fluorescence; filed as Kd, often an IC50 or EC50 that approximates it; bounds were set here for any values at or beyond the usual limits of such assays
Settings: source organism: Giardia lamblia ATCC 50803
ATTRIBUTE MEASURED: Kd

Request: Using the record for `QPWTPVSSF` , report its Kd.
Response: ≥ 20 µM

* * *

Target: HLA-A*26:01
Assay: IEDB peptide-MHC binding, purified MHC/competitive/fluorescence; filed as Kd, often an IC50 or EC50 that approximates it; bounds were set here for any values at or beyond the usual limits of such assays
Settings: source organism: Orthohantavirus tulaense
ATTRIBUTE MEASURED: Kd

Request: Using the record for `ILMARYMSK` , report its Kd.
Response: ≥ 20 µM
